- System: PC-3 (human prostate cancer cell)
- Procedure details: MTT assay, in vitro cytotoxicity on PC-3
- Condition parameters: Homo sapiens, read-out: Inhibitory Activity/% at 10 μM, PC-3, Table 1 (7 series); 10 μM; average of three replicates; "/" means no anticancer activity
Observable: inhibition at 10 µM
Your answer should be a number followed by the unit of measure.

query: State its inhibition at 10 µM on PC-3 (human prostate cancer cell): "O=C(CSc1nnc(-c2cc3c(cn2)[nH]c2ccccc23)o1)N1CCN(C(c2ccc(F)cc2)c2ccc(F)cc2)CC1"
result: 5.36%

query: Form entry - test system: PC-3 (human prostate cancer cell); read-out: inhibition at 10 µM; molecule: "O=C(CSc1nnc(-c2cc3c(cn2)[nH]c2ccccc23)o1)N1CCOc2ccccc21"
result: 36%

query: Recall the recorded inhibition at 10 µM for "O=C(CSc1nnc(-c2cc3c(cn2)[nH]c2ccccc23)o1)N1CCN(c2ccc(O)cc2)CC1" with PC-3 (human prostate cancer cell) and state it.
result: 22.7%

query: Give inhibition at 10 µM (PC-3 (human prostate cancer cell)) of the following molecule: "O=C(CSc1nnc(-c2cc3c(cn2)[nH]c2ccccc23)o1)N1CCN(c2ccc(F)cc2)CC1"
result: 26.5%

query: Missing value: inhibition at 10 µM, PC-3 (human prostate cancer cell), entry "O=C(CSc1nnc(-c2cc3c(cn2)[nH]c2ccccc23)o1)Nc1ccc(F)cc1" . Fill in?
result: 35.8%

query: For PC-3 (human prostate cancer cell), provide inhibition at 10 µM of "O=C(CSc1nnc(-c2cc3c(cn2)[nH]c2ccccc23)o1)N1CCN(c2ccc(Br)cc2)CC1" please.
result: 29.1%

query: Short answer please: inhibition at 10 µM, PC-3 (human prostate cancer cell), entry "O=C(CSc1nnc(-c2cc3c(cn2)[nH]c2ccccc23)o1)Nc1ccc(CN2CCOCC2)cc1"
result: 29.5%

====

Would you kindly list melting point for each of these molecules?

query: Name the reported melting point value associated with the molecule "O=C(CSc1nnc(-c2cc3c(cn2)[nH]c2ccccc23)o1)N1CCN(c2ccc(O)cc2)CC1"
result: 163.9 to 165.8 °C

query: Item under review: "O=C(CSc1nnc(-c2cc3c(cn2)[nH]c2ccccc23)o1)N1CCN(c2ccc(Cl)c(Cl)c2)CC1" . Reported melting point?
result: 168.3 to 170.9 °C

query: Give its melting point value. Item: "COc1cc(-c2nc(-c3nnc(SCC(=O)N4CCN(c5ccc(F)cc5F)CC4)o3)cc3c2[nH]c2ccccc23)cc(OC)c1OC"
result: 178.1 to 179.4 °C

query: Sample "CS(=O)(=O)N1CCN(C(=O)CSc2nnc(-c3cc4c(cn3)[nH]c3ccccc34)o2)CC1" — what was its melting point?
result: 174.3 to 175.6 °C

====

Can you tell me inhibition at 10 µM for the items I'm about to list?
- Test system: PC-3 (human prostate cancer cell)
- Procedure details: MTT assay, in vitro cytotoxicity on PC-3
- Condition parameters: Homo sapiens, read-out: Inhibitory Activity/% at 10 μM, PC-3, Table 1 (7 series); 10 μM; average of three replicates; "/" means no anticancer activity
Entry rule: numbers only, all in %.

query: Name the recorded inhibition at 10 µM for O=C(CSc1nnc(-c2cc3c(cn2)[nH]c2ccccc23)o1)N1CCN(c2ncccn2)CC1 [Compound 7g] .
result: 14.8

query: Field request: inhibition at 10 µM | item: O=C(CSc1nnc(-c2cc3c(cn2)[nH]c2ccccc23)o1)N1CCN(c2ccc(C(F)(F)F)cn2)CC1 [Compound 7r]
result: 44

query: Fill blank: measured inhibition at 10 µM of the compound O=C(CSc1nnc(-c2cc3c(cn2)[nH]c2ccccc23)o1)N1CCN(c2ccc(Cl)cc2)CC1 [Compound 7e] is ____.
result: 25

query: Endpoint output: inhibition at 10 µM of O=C(CSc1nnc(-c2cc3c(cn2)[nH]c2ccccc23)o1)N1CCN(c2ccc(F)cc2F)CC1 [Compound 7h] . Value?
result: 10.7

query: If you can, please state the reported inhibition at 10 µM value of O=C(CSc1nnc(-c2cc3c(cn2)[nH]c2ccccc23)o1)N1CCN(C2CCCCC2)CC1 [Compound 7p] .
result: 51.2

query: # input compound: COc1ccc(N2CCN(C(=O)CSc3nnc(-c4cc5c(cn4)[nH]c4ccccc45)o3)CC2)cc1 [Compound 7f] ; wanted: its inhibition at 10 µM
result: 11.5

query: // returns reported inhibition at 10 µM for input CS(=O)(=O)N1CCN(C(=O)CSc2nnc(-c3cc4c(cn3)[nH]c3ccccc34)o2)CC1 [Compound 7m]
result: 20
